test: NCI Yeast Anticancer Drug Screen. Data for the bub3 strain (AID 167); conditions: S. cerevisiae bub3 mutant strain, at 5.0 µM (retest, dose inferred, filed as 0.5)
This is part of a sample that, as a whole, favours compounds with a hit. Of some 79,000 tested, about 15% had one in any assay. The source made the active and inactive calls. No stated cut-off is given here; in the data, active means growth inhibition above about 70%; inactive means the rest.
Allowed answers: True (active), False (inactive)

Reference set (4 entries):
1) CN(C)N=Nc1ccc(NC=O)cc1: False
2) COc1ccc2cc(CN3CCC(C4CCN(Cc5ccc6cc(OC)ccc6c5)CC4)CC3)ccc2c1: False
3) COc1ccc(/C=C2\S/C(=N/Nc3nc(-c4ccccc4)cs3)NC2=O)cc1OC: True
4) CCN(CC)CCSc1c2ccccc2nc2cc(NCC(=O)Nc3ccccc3-c3ccccc3NC(=O)CNc3ccc4c(SCCN(CC)CC)c5ccccc5nc4c3)ccc12: False

Field: next compound
# outcome recorded in this test, key = O=C1c2ccc(O)cc2C(=O)c2c(O)ccc(O)c21
False

* * *

assay: NCI Yeast Anticancer Drug Screen. Data for the sgs1 mgt1 strain (AID 161);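 further: 0% = growth of cultures given vehicle only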; details: S. cerevisiae sgs1 mgt1 strain, at 50.0 µM (retest, dose inferred, filed as 5.0), hits give high values
Compounds without any hit were thinned out: in the full panel of roughly 79,000, 15% have a hit.
growth inhibition vs 40%: at or above is class 1, below is class 0.

1) COc1ccc(/C=C2\S/C(=N/Nc3nc(-c4ccccc4)cs3)NC2=O)cc1OC: class 1
2) COC1=C(N=[N+]=[N-])C(=O)c2ncccc2C1=O: class 1
3) COC(=O)C1(N2CCOCC2)CCC([C@@H](c2ccccc2)C(C)[N+](=O)[O-])C1 (stereo not given in full): class 0

Does the compound Cc1ccc2c(/C=C/c3ccc(N(C)C)cc3)ccnc2c1C have recorded growth inhibition that is 40% or more?
class 1

growth inhibition >= 40% for CN(C)N1C(=O)SCC(c2ccccc2)(c2ccccc2)C1=O ?
class 1

* * *

test: NCI Yeast Anticancer Drug Screen. Data for the wt1 strain (AID 149);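 further: 0% = growth of vehicle-treated wt1 cultures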; conditions: S. cerevisiae wt1 strain (SPY 50644) growth inhibition; at 100.0 µM; hits give high values
Compounds without any hit were thinned out: in the full panel of roughly 79,000, 15% have a hit. Activity calls are given as the source filed them. Rule as the data show it: active = growth inhibition above about 70%; inactive = the rest.
Please provide measured growth inhibition for the entries that follow.

Take a look at these entries with their results.
1. CCOC(=O)c1[nH]c2cccc3c2c1CC(Br)C3=O (centres undefined): 60% (inactive)
2. CN(Cc1cccc2ccccc12)Cc1cccc2ccccc12: -1% (inactive)
3. O=[N+]([O-])c1ccc2nnnn2c1: 19% (inactive)
4. CC(C)(C)[Si](C)(C)OCC1OC(n2cnc3c(N)ncnc32)C2OC(=S)OC12 (centres undefined): 17% (inactive)
5. COc1ccc2nc(N/N=C/c3sccc3C)cc(C)c2c1: 95% (active)

Quick request: growth inhibition for each listed item, please.
1. CCN(CC)c1ccc(N=Nc2cc(S(=O)(=O)O)ccc2O)c(O)c1
2. O=C(CCC(=O)c1ccc(O)cc1)Oc1ccc(O)cc1
3. CCOc1ccccc1N1C(=O)CC(Sc2ccccc2N)C1=O (centres undefined)
4. CN(C)/N=N/c1nc[nH]c1C(N)=O
5. O=S(=O)(Oc1c(Cl)cc(Cl)cc1Cl)c1ccccc1
6. O=C1C=CC(=O)N1c1ccc(Br)cc1Cl
7. O=C(Cc1ccccc1)c1ccc(O)cc1
8. O=CC(=C(I)I)c1ccccc1

["51% (inactive)", "1% (inactive)", "9% (inactive)", "88% (active)", "-5% (inactive)", "98% (active)", "87% (active)", "90% (active)"]

CCc1nc2ccc(N=Nc3c(O)ccc4ccccc34)cc2[nH]1 has a reported growth inhibition of 96% (active)
